Data provenance: PubChem BioAssay

- subjectOfTest: Fibroblast growth factor 10 (Homo sapiens) (UniProt O15520)
- Sequence (O15520 whole entry, looked up): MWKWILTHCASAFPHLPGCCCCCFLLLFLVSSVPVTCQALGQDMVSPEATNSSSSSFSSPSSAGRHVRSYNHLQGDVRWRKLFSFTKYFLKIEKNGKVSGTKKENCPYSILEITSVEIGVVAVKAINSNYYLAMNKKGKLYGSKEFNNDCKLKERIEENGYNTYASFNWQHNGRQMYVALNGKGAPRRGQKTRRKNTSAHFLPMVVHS
- method: FGF10 binders on small-molecule microarrays, primary screen, biochemical, small-molecule microarray, 635 nm fluorescence (AID 1102)
- runParameters: FGF10 binding, fluorescence 635 nm, higher = more signal
Label YES when composite z-score is at or above 0.3; otherwise label NO.

CC[C@@H]1[C@H]2C3C(=O)N(CC)C(=O)C3CC(=O)[C@H]2[C@H](c2ccc(C)cc2)N1S(=O)(=O)c1ccc(C)cc1 (stereo not given in full) = YES
COC(=O)[C@@]1(Cc2ccccc2)[C@H]2c3cc(C(=O)N4CCCC4)n(C[C@H](O)CO)c3C[C@H]2CN1C(=O)c1ccccc1 = NO
CN1C(=O)C2C=CC(C(O)c3c(F)cccc3Cl)N(Nc3ccccc3)C2C1=O (stereo not given) = YES
C=C[C@@H](C)[C@H](OC(=O)Nc1ccc(SC)cc1)c1ccc(OCCO)cc1 = NO
COCCCNC(=O)[C@]1(CCC(=O)OC(C)(C)C)N=C(c2ccc(OCCCO)cc2)O[C@@H]1c1ccccc1 = YES
C[C@H]1ON(c2ccc(C(=O)OC(C)(C)C)cc2)[C@@H](c2ccc(O)cc2)[C@@H]1C(=O)N1C(=O)OC[C@@H]1c1ccccc1 = YES
COc1ccc([Si](C)(C)[C@@H]2[C@@H](CC(=O)N3CCC[C@H]3CO)O[C@]3(C(=O)N(Cc4ccc(N5C(=O)c6cccc7cccc5c67)cc4)c4ccccc43)[C@H]2C)cc1 = YES
CCCC[C@@H]1C[C@H]1[C@@H](NC(=O)c1ccccc1)c1ccc(Cl)cc1 = NO
CC=CC(O)C1C=CC2C(=O)N(C)C(=O)C2N1N1CCCCC1 (stereo not given) = YES
CCCCN1CC=CC23O[C@@H]4C=CCOC(=O)[C@@H]4[C@H]2C(=O)N(C(C)CO)[C@@H]3C1=O (stereo not given in full) = NO
C=C(CCCC)/C(=C/C[C@@H](OC(=O)c1ccncc1)c1cccc(OCCO)c1)c1cnc2ccccc2c1 = YES
C=C(/C(=C/C[C@@H](OC(=O)c1ccncc1)c1ccccc1OCCO)c1cc(C(=O)OC)ccc1OC)C(C)C = YES
CC(C)(C)OC(=O)CC[C@]1(C(=O)O)N=C(c2ccc(OCCCO)cc2)O[C@H]1c1ccccc1 = NO
NC(=O)N1C(=O)C2C(C1=O)C1C=C(c3ccc(CO)cc3)C2C(C2CC2)N1Cc1sc2ccccc2c1Cl (stereo not given) = YES
COc1ccccc1CN1C(=O)c2ccccc2[C@@H](C(=O)NC(C)C)[C@@H]1c1ccc(CO)cc1 = YES
C=CCC(OC(C)=O)[C@@H]1[C@@H](N(Cc2ccc(-c3ccccc3)cc2)C(=O)c2cccc3ccccc23)c2cc(OCCCO)ccc2N1C(=O)Cc1ccc2ccccc2c1 (stereo not given in full) = NO
CC(C)c1ccc(NN2C(C(O)c3ccco3)C=CC3C(=O)N(c4ccccc4)C(=O)C32)cc1 (stereo not given) = YES
CC(C)N1CC=CC23O[C@@H]4C=CCOC(=O)[C@@H]4[C@H]2C(=O)N(C(C)CO)[C@@H]3C1=O (stereo not given in full) = NO
C=CCOC(=O)[C@@H]1[C@H]2C(=O)O[C@H](c3ccccc3)[C@H](c3ccccc3)N2[C@H](c2ccc(OCCOC(=O)[C@H]3C[C@H]4C(=O)N[C@@H](CCCC[N+](C)(C)C)C(=O)N4[C@H]3c3ccc(O)cc3)cc2)[C@@]12C(=O)Nc1ccc(I)cc12 = YES
COc1cc(OC)c(C(O)C2C=CC3C(=O)N(c4ccccc4)C(=O)C3N2Nc2ccc(C#N)cc2)cc1Br (stereo not given) = YES
COC(=O)C1(Cc2ccccc2)C=C2C(=C(C(C)C)C(=O)C2C)CN1 (stereo not given) = NO
Cc1ccc(F)cc1S(=O)(=O)N[C@@H]1CCN(Cc2ccc(Oc3ccccc3)cc2)C1 = NO
CN(C)CCCCNC(=O)[C@H]1C[C@H]2C(=O)N3CCC[C@H]3C(=O)N2[C@H]1c1ccc(O)cc1 = NO
COc1c(C)cc(-c2cc3c(c(Cc4ccccc4)n2)[Si](C(C)C)(C(C)C)OC3)cc1C = NO
CCOC(=O)[C@H]1C/C=C/C[C@H](C(=O)OCC)C(=O)O[C@H]2[C@@H](OC)O[C@H](CO)[C@@H](OC(=O)Nc3ccc(OC)cc3)[C@@H]2OC1=O = YES
Cc1ccc(S[C@]2(C(=O)NC3CC3)CC(=O)N(Cc3ccccc3Cl)[C@@H]2c2ccc(CO)cc2I)cc1 = YES
O=C1O[C@H](c2ccccc2)[C@H](c2ccccc2)N2[C@H]1[C@@H](C(=O)O)[C@]1(C(=O)Nc3ccccc31)[C@H]2c1ccc(O)cc1 = YES
CN(C)CCCN1C(=O)[C@@]2(c3ccc([N+](=O)[O-])cc3)CC(=O)N(CC34CC5CC(CC(C5)C3)C4)[C@@H]2c2ccc(CO)cc21 = NO
C=C(COC)/C(=C/C[C@@H](OC(=O)c1ccncc1)c1ccc(OCCO)cc1)c1cnc2ccccc2c1 = YES
